Hey, just so you know, these numbers are from ChEMBL document CHEMBL3885861.

# Organism: Rattus norvegicus
# assay notes: Open TG-GATES - Regimen: Daily Repeat
# Format: toxicity, organism-based, Sprague-Dawley
# Design: regimen Daily Repeat, gender Male, age 6 weeks
# measurement conditions: in vivo, po, 300 mg/kg, […], route gavage, dose level Middle, time 7 day
assay metric: TERMINAL_BW (g)
Field format: number, assumed g, no unit text.

>>> print(df.to_string())
                                   compound  assay_metric  data_value
0   CC(C)(S)[C@@H](N)C(=O)O [PENICILLAMINE]   TERMINAL_BW       273.3
1                   O=C(O)c1cccnc1 [NIACIN]   TERMINAL_BW       273.2
2  CCN1CCCC1CNC(=O)c1cc(S(N)(=O)=O)ccc1OC (centres undefined) [SULPIRIDE]   TERMINAL_BW       265.3

*Q* // lookup TERMINAL_BW for O=C(N[C@H](CO)[C@H](O)c1ccc([N+](=O)[O-])cc1)C(Cl)Cl [CHLORAMPHENICOL]
*A* 277.3
